Molecular target: T1, Human ROR1 (receptor tyrosine kinase-like orphan receptor 1) (human, UniProt Q01973 30-937)
T1 construct: also called hROR1; K562/ROR1
T1 sequence (Q01973 30-937): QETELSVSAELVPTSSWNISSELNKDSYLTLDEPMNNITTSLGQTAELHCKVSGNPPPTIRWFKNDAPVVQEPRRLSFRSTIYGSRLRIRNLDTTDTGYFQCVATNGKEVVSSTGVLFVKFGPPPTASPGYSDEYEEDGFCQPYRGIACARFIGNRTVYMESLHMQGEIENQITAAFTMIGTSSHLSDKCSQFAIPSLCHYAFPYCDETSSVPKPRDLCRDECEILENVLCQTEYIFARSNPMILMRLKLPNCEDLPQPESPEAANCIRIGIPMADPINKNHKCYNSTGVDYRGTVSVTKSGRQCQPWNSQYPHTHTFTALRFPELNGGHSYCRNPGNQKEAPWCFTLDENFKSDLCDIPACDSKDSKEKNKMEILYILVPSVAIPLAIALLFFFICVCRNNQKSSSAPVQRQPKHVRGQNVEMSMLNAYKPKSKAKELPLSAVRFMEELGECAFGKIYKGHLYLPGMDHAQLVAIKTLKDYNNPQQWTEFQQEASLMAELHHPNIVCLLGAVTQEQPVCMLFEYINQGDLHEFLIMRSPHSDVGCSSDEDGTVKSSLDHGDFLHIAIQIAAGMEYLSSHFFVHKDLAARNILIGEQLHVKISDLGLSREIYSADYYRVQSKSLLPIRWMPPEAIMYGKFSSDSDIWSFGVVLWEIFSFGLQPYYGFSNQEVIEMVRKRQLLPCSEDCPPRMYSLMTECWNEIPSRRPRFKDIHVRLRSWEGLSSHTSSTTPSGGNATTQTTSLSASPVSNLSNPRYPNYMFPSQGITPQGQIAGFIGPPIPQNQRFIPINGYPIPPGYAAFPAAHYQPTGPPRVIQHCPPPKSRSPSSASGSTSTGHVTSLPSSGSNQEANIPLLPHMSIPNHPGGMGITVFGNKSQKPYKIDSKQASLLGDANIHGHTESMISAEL
Assay: competition with Myc-R12 scFv on ROR1/K562 cells; predicted plateau relative to R12 scFv = 100%
reportedMetric: % Max Competition (%)
State the answer as a number, implicitly in %.

Illustrative cases are given below, each with its answer.
*Q* Param item = Clone V163 (VHH, human VH-only single-domain antibody, no VL) VHH: QVQLVESGGGLVKPGGSLRLSCAASGFTFSNAWMSWVRQAPGKGLEWVGRIKSKTDGGTTDYAAPVKGRFTISRDDSKNTLYLQMNSLKTEDTAVYYCARQGDSSSWYVEVYYFDYWGQGTLVTVSS ; retrieve measured % Max Competition.
*A* 58

*Q* Repeat with Clone V420 (VHH, human VH-only single-domain antibody, no VL) VHH: QVQLVESGGGLVQPGGSLRLSCAASGFTFSSYWMSWVRQAPGKGLEWVANIKQDGSEKYYVDSVKGRFTISRDNAKNSLYLQMNSLRAEDTAVYYCARVNGGEYYFDYWGQGTLVTVSS
*A* 58

*Q* Repeat with Clone V224 (VHH, human VH-only single-domain antibody, no VL) VHH: QVQLVESGGGLVKPGGSLRLSCAASGFTFINAWMSWVRQAPGKGLEWVGRIKSKTDGGTTDYAAPVKGRFTISRDDSKNTLYLQMNSLKTEDTAVYYCARTYSSSWYESLLFDYWGQGTLVTVSS
*A* 32

From here, focus on the item given below.
*Q* Param item = Clone V282 (VHH, human VH-only single-domain antibody, no VL) VHH: EVQLVESGGGLVQPGGSLRLSCAASGFTFSSYWMSWVRQAPGKGLEWVANIKQDGSEKYYVDSVKGRFTISRDNAKNSLYLQMNSLRAEDTAVYYCARVRGSEYYFDYWGQGTLVTVSS ; retrieve measured % Max Competition.
*A* 48
